molecular target: PD-L1 on CHO-K1/PD-L1/alphaAPC stimulator cells (UniProt Q9NZQ7 19-290, limits assumed); assay: cell-based or functional assay
Sequence (Q9NZQ7 19-290 limits assumed): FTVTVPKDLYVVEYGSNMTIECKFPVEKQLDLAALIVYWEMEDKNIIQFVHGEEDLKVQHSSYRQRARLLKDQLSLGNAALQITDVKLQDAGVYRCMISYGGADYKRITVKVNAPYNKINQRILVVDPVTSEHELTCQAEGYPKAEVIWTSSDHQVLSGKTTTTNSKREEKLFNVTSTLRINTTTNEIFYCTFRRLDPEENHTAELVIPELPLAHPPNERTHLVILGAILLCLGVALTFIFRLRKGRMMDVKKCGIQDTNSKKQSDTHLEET
# Lookup of reported PD-L1/PD-1 blockade EC50 (nM) keyed by entry
Form entry: value (nM) — number only.

Worked examples follow.
[
  {
    "binder": "PD-L1 binding agent 9 (antibody, V domains shown) VH: QVQLVQSGAEVKEPGASVKVSCKASGYTFTDHYLHWVRQAPGQGLEWMGWMNPNIGNTGYAQKFQGRVTMTRDTSTSTVYMELSSLRSEDTAVYYCAREPLQLGGFDYWGQGTLVTVSS VL: DIQMTQSPSSLSASVGDRVTITCRASESISSWLAWYQQKPGKAPKLLIYAASSLQSGVPSRFSGSGSGTDFTLTISSLQPEDFATYYCQQSYSTPLTFGQGTKLEIK",
    "unit_descriptor": "nM",
    "PD-L1/PD-1 blockade EC50 (nM)": 0.67
  },
  {
    "binder": "PD-L1 binding agent 4 (antibody, V domains shown) VH: QVQLVQSGAEVKKPGSSVKVSCKASGYTFTGYYIHWVRQAPGQGLEWMGGIIPIFGTASYAQKFQGRVTITADESTSTAYMELSSLRSEDTAVYYCARDGRFWSGYPDYWGQGTLVTVSS VL: DIQMTQSPSSLSASVGDRVTITCRASQGISNYLAWYQQKPGKAPKLLIYRASNLESGVPSRFSGSGSGTDFTLTISSLQPEDFATYYCQQSYSTPLTFGGGTKVEIK",
    "unit_descriptor": "nM",
    "PD-L1/PD-1 blockade EC50 (nM)": 0.85
  },
  {
    "binder": "PD-L1 binding agent 5 (antibody, V domains shown) VH: QVQLVQSGAEVKKPGASVKVSCKASGYTFSTHYMHWVRQAPGQGLEWMGWMNPNSGHAGSAQKFQGRVTMTRDTSTSTVYMELSSLRSEDTAVYYCARESIAVAGYDYWGQGTLVTVSS VL: DIQMTQSPSSLSASVGDRVTITCRASQSISSWLAWYQQKPGKAPKLLIYAASTLQRGVPSRFSGSGSGTDFTLTISSLQPEDFATYYCQQSYSTPYTFGQGTKLEIK",
    "unit_descriptor": "nM",
    "PD-L1/PD-1 blockade EC50 (nM)": 0.37
  },
  {
    "binder": "PD-L1 binding agent 15 (antibody, V domains shown) VH: QVQLVQSGAEVKKPGASVKVSCKASGYTFTRHYVHWVRQAPGQGLEWMGWMNPNSGSAGYAQKFQGRVTMTRDTSTSTVYMELSSLRSEDTAVYYCARERGYNAFDYWGQGTLVTVSS VL: EIVMTQSPATLSVSPGERATLSCRASQSLSSSYLAWYQQKPGQAPRLLIYGASTRATGIPARFSGSGSGTEFTLTISSLQSEDFAVYYCHQYFTTPLTFGQGTRLEIK",
    "unit_descriptor": "nM",
    "PD-L1/PD-1 blockade EC50 (nM)": 1.13
  }
]

Which value of PD-L1/PD-1 blockade EC50 (nM) has been reported for PD-L1 binding agent 11 (antibody, V domains shown) VH: QVQLVQSGAEVKKPGASVKVSCKASGYTFTGYYMHWVRQAPGQGLEWMGWMNPNSGNTGYAQKFQGRVTMTRDTSTSTVYMELSSLRSEDTAVYYCARDSWYGDWFDPWGQGTLVTVSS VL: DIQMTQSPSSLSASVGDRVTITCRASQSVGSWLAWYQQKPGKAPKLLIYGASSLQSGVPSRFSGSGSGTDFTLTISSLQPEDFATYYCQQSYSTPLTFGGGTKVEIK in the records? 0.37

Numbers sourced from patent US20230069055A1.
